The measurements presented in this section are drawn from patent EP3154958B1.

- targetEntity: PI3Kγ (Homo sapiens, UniProt P48736)
- Construct: made in house
- Sequence (P48736 whole entry): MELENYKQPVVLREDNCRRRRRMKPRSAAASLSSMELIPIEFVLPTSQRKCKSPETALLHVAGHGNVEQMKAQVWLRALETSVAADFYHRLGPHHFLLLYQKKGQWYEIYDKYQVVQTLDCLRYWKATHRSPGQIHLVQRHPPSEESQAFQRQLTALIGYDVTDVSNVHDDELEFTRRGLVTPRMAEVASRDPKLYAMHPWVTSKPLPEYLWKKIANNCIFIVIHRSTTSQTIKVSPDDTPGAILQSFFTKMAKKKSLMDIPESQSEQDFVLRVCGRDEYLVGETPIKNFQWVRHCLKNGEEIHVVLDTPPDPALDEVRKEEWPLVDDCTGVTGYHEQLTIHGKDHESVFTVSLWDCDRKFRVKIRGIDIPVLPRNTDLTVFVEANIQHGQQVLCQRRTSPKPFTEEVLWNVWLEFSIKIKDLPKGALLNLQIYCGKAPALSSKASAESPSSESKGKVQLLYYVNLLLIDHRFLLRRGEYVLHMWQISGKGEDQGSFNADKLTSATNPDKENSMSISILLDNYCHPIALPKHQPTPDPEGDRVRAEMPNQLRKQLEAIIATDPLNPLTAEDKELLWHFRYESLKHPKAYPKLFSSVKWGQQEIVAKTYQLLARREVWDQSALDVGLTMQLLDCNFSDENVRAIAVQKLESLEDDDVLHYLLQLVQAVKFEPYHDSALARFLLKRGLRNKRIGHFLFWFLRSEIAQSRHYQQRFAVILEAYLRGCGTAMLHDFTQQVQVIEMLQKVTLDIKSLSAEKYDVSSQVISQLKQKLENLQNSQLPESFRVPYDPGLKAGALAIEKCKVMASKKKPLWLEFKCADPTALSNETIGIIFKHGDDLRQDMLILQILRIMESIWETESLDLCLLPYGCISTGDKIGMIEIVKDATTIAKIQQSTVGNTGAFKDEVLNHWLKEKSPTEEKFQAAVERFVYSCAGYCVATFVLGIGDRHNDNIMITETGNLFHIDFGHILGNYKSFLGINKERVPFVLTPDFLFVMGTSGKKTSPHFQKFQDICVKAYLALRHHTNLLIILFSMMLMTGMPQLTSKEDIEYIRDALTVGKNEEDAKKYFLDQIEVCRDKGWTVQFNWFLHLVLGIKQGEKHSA
- Sequence (Q8WYR1 whole entry partner): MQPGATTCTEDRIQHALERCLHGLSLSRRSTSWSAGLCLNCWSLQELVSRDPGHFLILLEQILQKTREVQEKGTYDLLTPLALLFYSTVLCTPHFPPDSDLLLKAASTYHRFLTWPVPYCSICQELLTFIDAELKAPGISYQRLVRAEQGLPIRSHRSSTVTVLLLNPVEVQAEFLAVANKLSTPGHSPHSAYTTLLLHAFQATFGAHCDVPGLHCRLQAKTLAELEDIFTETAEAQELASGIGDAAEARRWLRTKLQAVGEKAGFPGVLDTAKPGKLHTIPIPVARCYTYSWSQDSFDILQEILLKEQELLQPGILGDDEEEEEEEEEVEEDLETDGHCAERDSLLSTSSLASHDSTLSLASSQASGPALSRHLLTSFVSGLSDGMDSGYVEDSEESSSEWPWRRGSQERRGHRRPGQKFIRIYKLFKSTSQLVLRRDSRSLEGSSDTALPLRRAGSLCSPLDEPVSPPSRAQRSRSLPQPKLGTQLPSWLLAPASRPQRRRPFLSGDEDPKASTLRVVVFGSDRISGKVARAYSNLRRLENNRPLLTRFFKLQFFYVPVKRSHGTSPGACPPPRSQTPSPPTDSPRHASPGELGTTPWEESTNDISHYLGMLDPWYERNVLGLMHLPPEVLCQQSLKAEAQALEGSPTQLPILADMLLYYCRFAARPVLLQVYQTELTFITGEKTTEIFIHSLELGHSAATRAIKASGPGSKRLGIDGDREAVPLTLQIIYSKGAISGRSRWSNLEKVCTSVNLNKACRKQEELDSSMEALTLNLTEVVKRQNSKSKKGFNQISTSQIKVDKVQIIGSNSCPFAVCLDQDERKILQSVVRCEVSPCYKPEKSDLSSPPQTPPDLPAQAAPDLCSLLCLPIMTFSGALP
- assayInfo: TR-FRET enzymatic activity assay, PI3Kγ
- Type: biochemical
property: IC50 (nM)
State the answer as a number, implicitly in nM.

Name the reported IC50 value associated with the compound Cc1nc(N)nc(N[C@H](c2nc3cccc(Cl)c3c(=O)n2C2[C@H]3CNC[C@@H]23)C2CC2)c1C#N (stereo in doubt) [Compound 14] 480

Name the reported IC50 value associated with the compound N#Cc1c(N)nc(N)nc1N[C@H](c1nc2cccc(Cl)c2c(=O)n1C1[C@H]2CNC[C@@H]12)C1CC1 (stereo in doubt) [Compound 15] 650

Name the reported IC50 value associated with the compound C[C@H](Nc1nc(N)nc(N)c1C#N)c1nc2cccc(Cl)c2c(=O)n1C1[C@H]2CNC[C@@H]12 (stereo in doubt) [Compound 19] 1200

Name the reported IC50 value associated with the compound C[C@H](Nc1ncnc2ccc(Cl)nc12)c1nc2c(Cl)ccc(Cl)c2c(=O)n1N1CCNCC1 [Compound 52] 3100

----------
- targetEntity: PI3Kβ (Homo sapiens)
- Construct: made in house
- Sequence (P42338 whole entry, one chain of several): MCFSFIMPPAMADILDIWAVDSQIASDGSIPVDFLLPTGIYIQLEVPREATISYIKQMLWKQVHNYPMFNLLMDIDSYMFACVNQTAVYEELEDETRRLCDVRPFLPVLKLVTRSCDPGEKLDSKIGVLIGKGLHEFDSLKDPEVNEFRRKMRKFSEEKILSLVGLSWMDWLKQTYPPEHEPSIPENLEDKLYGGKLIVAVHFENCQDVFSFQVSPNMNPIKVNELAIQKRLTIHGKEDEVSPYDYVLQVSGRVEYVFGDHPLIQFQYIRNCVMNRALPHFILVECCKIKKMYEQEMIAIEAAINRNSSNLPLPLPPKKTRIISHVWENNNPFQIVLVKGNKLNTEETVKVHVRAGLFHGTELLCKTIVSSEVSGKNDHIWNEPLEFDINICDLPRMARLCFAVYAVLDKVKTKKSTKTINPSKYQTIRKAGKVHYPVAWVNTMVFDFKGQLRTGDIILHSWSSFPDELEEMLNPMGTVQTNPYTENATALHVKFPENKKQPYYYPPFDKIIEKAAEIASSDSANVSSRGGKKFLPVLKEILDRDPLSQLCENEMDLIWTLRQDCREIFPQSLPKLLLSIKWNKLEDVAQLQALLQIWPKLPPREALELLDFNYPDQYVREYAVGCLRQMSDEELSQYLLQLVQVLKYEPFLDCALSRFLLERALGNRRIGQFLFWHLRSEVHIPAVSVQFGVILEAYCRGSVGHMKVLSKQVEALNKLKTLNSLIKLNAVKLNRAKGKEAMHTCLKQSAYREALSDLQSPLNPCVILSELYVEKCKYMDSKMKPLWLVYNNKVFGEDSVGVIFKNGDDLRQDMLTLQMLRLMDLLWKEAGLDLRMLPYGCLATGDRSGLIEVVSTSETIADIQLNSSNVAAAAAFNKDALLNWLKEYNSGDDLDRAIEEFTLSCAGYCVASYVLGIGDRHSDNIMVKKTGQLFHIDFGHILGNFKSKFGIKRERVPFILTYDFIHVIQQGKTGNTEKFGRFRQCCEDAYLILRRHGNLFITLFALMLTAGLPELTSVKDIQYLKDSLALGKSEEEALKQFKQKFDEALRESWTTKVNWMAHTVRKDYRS
- assayInfo: TR-FRET enzymatic activity assay, PI3Kβ
- Assay type: biochemical
- measurementConditions: recombinant heterodimeric PI3Kβ 25-50 pM, 2× Km ATP, 30 minutes at 25°C
- Experimental: The compounds of formula (I) were characterized for their enzymatic activity against the PI3K isoforms. The activities were measured using a time-resolved fluorescence resonance energy transfer (TR-FRET) assay.
property: IC50 (nM)
State the answer as a number, implicitly in nM.

What is its IC50 for PI3Kβ (Homo sapiens)? Entry: `C[C@H](Nc1ncnc(N)c1C#N)c1nc2cccc(Cl)c2c(=O)n1C1CCN(C)CC1` 460

What is its IC50 for PI3Kβ (Homo sapiens)? Entry: `CC[C@H](Nc1nc(N)nc(C)c1C#N)c1nc2cccc(Cl)c2c(=O)n1N1CCN(Cc2ccc(C(F)(F)F)cc2)CC1` 4500

What is its IC50 for PI3Kβ (Homo sapiens)? Entry: C[C@H](Nc1nc(N)nc(N)c1C#N)c1nc2cccc(Cl)c2c(=O)n1-c1ccccc1 [Compound X, reference compound] 11

What is its IC50 for PI3Kβ (Homo sapiens)? Entry: `C[C@H](Nc1nc(N)nc(Cl)c1C#N)c1nc2cccc(Cl)c2c(=O)n1N1CCN(CC(F)(F)F)CC1` 1400

What is its IC50 for PI3Kβ (Homo sapiens)? Entry: `CC[C@H](Nc1nc(N)nc(N)c1C#N)c1nc2cccc(Cl)c2c(=O)n1N1CCN(Cc2ccc(C(F)(F)F)cc2)CC1` 10000

What is its IC50 for PI3Kβ (Homo sapiens)? Entry: C[C@H](Nc1nc(N)nc(N)c1C#N)c1nc2cccc(Cl)c2c(=O)n1[C@@H]1CCCNC1 (stereo in doubt) 5600

What is its IC50 for PI3Kβ (Homo sapiens)? Entry: `C[C@H](Nc1ncnc(N)c1C#N)c1nc2cccc(Cl)c2c(=O)n1N1CCC(N)CC1` 450

----------
Give IC50 for every item shown.
- targetEntity: PI3Kδ (Homo sapiens, UniProt O00329)
- Construct: made in house
- Sequence (O00329 whole entry): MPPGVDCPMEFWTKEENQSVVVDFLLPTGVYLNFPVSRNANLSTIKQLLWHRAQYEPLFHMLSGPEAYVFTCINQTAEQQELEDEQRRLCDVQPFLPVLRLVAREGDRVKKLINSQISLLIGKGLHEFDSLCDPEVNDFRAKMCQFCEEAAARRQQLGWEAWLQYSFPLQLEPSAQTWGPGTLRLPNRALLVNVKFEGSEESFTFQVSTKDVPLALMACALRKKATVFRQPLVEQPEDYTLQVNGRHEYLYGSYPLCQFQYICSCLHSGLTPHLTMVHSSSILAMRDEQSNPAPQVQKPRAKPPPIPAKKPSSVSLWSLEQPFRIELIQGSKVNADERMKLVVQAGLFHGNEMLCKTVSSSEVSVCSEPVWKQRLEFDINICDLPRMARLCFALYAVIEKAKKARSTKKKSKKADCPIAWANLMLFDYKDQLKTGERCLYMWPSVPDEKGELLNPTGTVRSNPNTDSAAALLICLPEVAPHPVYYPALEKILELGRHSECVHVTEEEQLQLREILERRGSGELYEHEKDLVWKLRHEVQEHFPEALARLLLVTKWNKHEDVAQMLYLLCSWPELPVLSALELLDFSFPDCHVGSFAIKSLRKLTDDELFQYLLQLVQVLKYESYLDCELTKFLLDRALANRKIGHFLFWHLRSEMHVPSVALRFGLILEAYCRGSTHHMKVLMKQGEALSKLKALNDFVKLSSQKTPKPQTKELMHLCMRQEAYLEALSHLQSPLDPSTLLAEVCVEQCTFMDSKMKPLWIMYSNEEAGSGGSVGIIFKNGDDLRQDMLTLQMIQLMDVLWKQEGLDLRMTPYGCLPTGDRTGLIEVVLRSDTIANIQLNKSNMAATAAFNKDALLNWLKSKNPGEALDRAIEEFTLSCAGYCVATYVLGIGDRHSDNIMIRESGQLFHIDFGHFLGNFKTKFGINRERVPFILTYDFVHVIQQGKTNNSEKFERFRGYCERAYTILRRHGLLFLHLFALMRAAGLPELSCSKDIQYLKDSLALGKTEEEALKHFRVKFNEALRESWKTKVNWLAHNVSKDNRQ
- Sequence (P27986 whole entry partner): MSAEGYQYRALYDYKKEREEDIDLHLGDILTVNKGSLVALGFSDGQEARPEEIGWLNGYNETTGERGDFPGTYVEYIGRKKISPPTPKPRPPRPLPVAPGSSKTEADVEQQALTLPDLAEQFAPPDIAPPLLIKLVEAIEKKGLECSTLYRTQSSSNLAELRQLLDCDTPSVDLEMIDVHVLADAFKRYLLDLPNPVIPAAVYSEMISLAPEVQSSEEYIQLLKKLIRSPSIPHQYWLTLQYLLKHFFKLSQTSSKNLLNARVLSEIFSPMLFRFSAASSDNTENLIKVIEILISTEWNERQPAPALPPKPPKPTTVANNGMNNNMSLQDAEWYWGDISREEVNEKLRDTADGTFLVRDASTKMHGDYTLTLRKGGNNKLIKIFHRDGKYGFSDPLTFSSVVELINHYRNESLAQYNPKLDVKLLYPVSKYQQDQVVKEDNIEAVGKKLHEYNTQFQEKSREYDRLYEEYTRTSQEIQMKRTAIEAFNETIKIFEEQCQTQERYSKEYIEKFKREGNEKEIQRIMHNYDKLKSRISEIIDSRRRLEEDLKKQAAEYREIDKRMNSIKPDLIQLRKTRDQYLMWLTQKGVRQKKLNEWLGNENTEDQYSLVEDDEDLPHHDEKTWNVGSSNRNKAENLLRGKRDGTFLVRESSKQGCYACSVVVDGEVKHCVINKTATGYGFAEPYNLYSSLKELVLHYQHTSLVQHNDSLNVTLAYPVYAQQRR
- assayInfo: TR-FRET enzymatic activity assay, PI3Kδ
- Format: biochemical
- measurementConditions: recombinant heterodimeric PI3Kδ 25-50 pM, 2× Km ATP, 30 minutes at 25°C
State the answer as a number, implicitly in nM.

Name the reported IC50 value associated with the compound `C[C@H](Nc1nc(N)nc(N)c1C#N)c1nc2cccc(Cl)c2c(=O)n1N1CCN(CC(F)(F)F)CC1` 16

Name the reported IC50 value associated with the compound C[C@H](Nc1nc(N)nc(N)c1C#N)c1nc2cccc(Cl)c2c(=O)n1C1CCN(CC(F)(F)F)C1 (stereo partly shown) 14

Name the reported IC50 value associated with the compound `C[C@H](Nc1ncnc(N)c1Cl)c1nc2cccc(Cl)c2c(=O)n1N1CCNCC1` 3

Name the reported IC50 value associated with the compound `C[C@H](Nc1ncnc(N)c1C#N)c1nc2cccc(Cl)c2c(=O)n1N1CCNCC1` 1

Name the reported IC50 value associated with the compound `C[C@H](Nc1nc(N)nc(N)c1Cl)c1nc2cccc(Cl)c2c(=O)n1C1CCN(CC(F)(F)F)CC1` 260

Name the reported IC50 value associated with the compound C[C@H](Nc1nc(N)nc(N)c1C#N)c1nc2cccc(Cl)c2c(=O)n1N1CCNC(C(F)(F)F)C1 (stereo partly shown) 0.9

Name the reported IC50 value associated with the compound `Nc1nc(N)c(Cl)c(N[C@H](c2nc3cccc(Cl)c3c(=O)n2N2CCOCC2)C2CC2)n1` 19
